target: Caspase-1 (Homo sapiens) (UniProt P29466); assay: Second order rate constants were tested for inhibition of IL-1 beta converting enzyme (ICE)
Sequence (P29466 120-297 limits assumed): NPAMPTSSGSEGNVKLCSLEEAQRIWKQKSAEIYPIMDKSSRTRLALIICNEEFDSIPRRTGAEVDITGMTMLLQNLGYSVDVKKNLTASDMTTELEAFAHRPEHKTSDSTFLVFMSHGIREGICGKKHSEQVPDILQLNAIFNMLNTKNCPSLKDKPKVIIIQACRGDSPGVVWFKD
Sequence (P29466 317-404 limits assumed): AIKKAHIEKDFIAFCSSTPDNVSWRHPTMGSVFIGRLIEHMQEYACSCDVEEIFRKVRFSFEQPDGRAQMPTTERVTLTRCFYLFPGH
Consider the following molecules; for each one, report its K obs / 1.

Which K obs / 1 is reported for this molecule? Cc1nccn1Cc1ccc(C(=O)N[C@H]2CCC(=O)N3CCC[C@@H](C(=O)N[C@@H](CC(=O)O)C(=O)COC(=O)c4c(Cl)cccc4Cl)N3C2=O)cc1
340000 M⁻¹ s⁻¹

I would be grateful if you could share the reported K obs / 1 for CC(C)[C@H](NC(=O)c1ccc(CN2CCOCC2)cc1)C(=O)N[C@@H](C)C(=O)N[C@@H](CC(=O)O)C(=O)COc1cc(C(F)(F)F)nn1-c1ccccc1 .
186000 M⁻¹ s⁻¹

For CC(C)[C@H](NC(=O)OCc1ccccc1)C(=O)N[C@@H](C)C(=O)N[C@@H](CC(=O)O)C(=O)COc1cc(C(F)(F)F)nn1-c1ccc(Cl)cc1 , what is its reported K obs / 1?
340000 M⁻¹ s⁻¹

// query K obs / 1 value for entry O=C(O)C[C@H](NC(=O)[C@@H]1CCCN2C(=O)CC[C@H](NC(=O)OCc3ccccc3)C(=O)N12)C(=O)COc1cc(C(F)(F)F)nn1-c1ccc(Cl)cc1
437000 M⁻¹ s⁻¹

I'd like to know its K obs / 1. The molecule in question is CSc1ccc(C(=O)Nc2cnc(-c3ccc(F)cc3)n(CC(=O)N[C@@H](CC(=O)O)C(=O)COc3cc(C(F)(F)F)nn3-c3ccc(Cl)cc3)c2=O)cc1
110000 M⁻¹ s⁻¹

# get_value(readout='K obs / 1', item= CN1CCN(Cc2ccc(C(=O)N[C@H]3CCC(=O)N4CCC[C@@H](C(=O)N[C@@H](CC(=O)O)C(=O)COC(=O)c5c(Cl)cccc5Cl)N4C3=O)cc2)CC1 )
210000 M⁻¹ s⁻¹

Just for reference, ChEMBL document CHEMBL1130067 is where these values come from.
